assay_text: background-corrected fluorescence of 3'-dye-labeled ssDNA relative to brightest sequence (3'-GCGCG) (fraction); higher = brighter dye fluorescence (less quenching)
measurement_parameters: dye: Cy5 (3' terminal)
assay_metric: background-corrected fluorescence
Give bare numbers.

{"residue_codes": "TTTTTTGATGCTGCGCATGATTTTTTTTTTTTTTTCAATC [CTAAC]", "observed_value": 0.284}

Batch request: background-corrected fluorescence per item, same order as input.
1. TTTTTGCATCATCAGCAGCATTTTTTTTTTTTTTTTGGTT
2. TTTTTTCATGATGCGCATCATTTTTTTTTTTTTTTGCATG [GTACG]
3. TTTTTGCATGCTGATCAGCATTTTTTTTTTTTTTTTACGT

Result:
0.477
0.385
0.482

Record background-corrected fluorescence for all entries; do not skip any.
1. TTTTTGCATGCTGATGATGATTTTTTTTTTTTTTTTACCC [CCCAT]
2. TTTTTGCAGCATCATGCGCATTTTTTTTTTTTTTTTTGAT [TAGTT]
3. TTTTTGCATGCTCAGCAGCATTTTTTTTTTTTTTTTAGTT [TTGAT]
4. TTTTTTGCTGATGATGCTGCTTTTTTTTTTTTTTTACCAA [AACCA]
5. TTTTTGCATGCTCAGCATCATTTTTTTTTTTTTTTTAGTG [GTGAT]
6. TTTTTGCATGATGAGCAGCATTTTTTTTTTTTTTTTCCTT
7. TTTTTTGAGCATGCTCATGCTTTTTTTTTTTTTTTCTAGA [AGATC]

Result:
1: 0.276; 2: 0.453; 3: 0.411; 4: 0.402; 5: 0.455; 6: 0.351; 7: 0.529

Report background-corrected fluorescence for every entry below.
1. TTTTTTGCTGCTGCTGCTCATTTTTTTTTTTTTTTAAAAG [GAAAA]
2. TTTTTGCATGAGCATCATCATTTTTTTTTTTTTTTTCTGG [GGTCT]
3. TTTTTTGCTGATGCGCATCATTTTTTTTTTTTTTTACATG [GTACA]
4. TTTTTGCAGCAGCATCAGCATTTTTTTTTTTTTTTTTTGT [TGTTT]
5. TTTTTTGCTCAGCATGAGCATTTTTTTTTTTTTTTAGTCT [TCTGA]

Result:
1. 0.403
2. 0.43
3. 0.409
4. 0.46
5. 0.368
